tested on: HOP-92 NSCLC; assay: NCI tumour cell line growth inhibition, 48 h
EXPERIMENTAL ENDPOINT: GI50

COMPOUND: C/C(=N\n1c(N)c(C#N)c(-c2ccc(Cl)cc2)c(C#N)c1=O)c1ccncc1
ASSAY RESULT: 0.61 µM
//
COMPOUND: Cc1cc(=O)oc2cc(OCCn3c(C)nn(-c4ccc(Cl)cc4)c3=O)ccc12
ASSAY RESULT: 16.1 µM
//
COMPOUND: CC12OC(C(=O)C13CCC3)C1C(=O)c3ccccc3C(=O)C12 (stereo not given)
ASSAY RESULT: > 100 µM
//
COMPOUND: CCN(CC)CCOc1ccc(/C=C2\CC3C4CC=C5C[C@@H](OC(C)=O)CC[C@]5(C)C4CC[C@]3(C)C2=O)cc1OC (stereo not given in full)
ASSAY RESULT: 13.3 µM
//
COMPOUND: C=CC1=CC(C)C[C@]1(O)C(=O)OC (stereo not given in full)
ASSAY RESULT: > 100 µM
